system: PBMC; test: Antiproliferative activity against PHA-stimulated human PBMC at 50 ug/mL after 4 days by MTT assay relative to DMSO-treated control; assay type: functional
Listing of entries alongside the reported Activity.
Quick note: give the figure in %, leave out the unit.

- MOLECULE: "FC(F)(F)c1ccc2c(c1)Nc1nc3ccccc3cc1S2"
  SYSTEM NAME: "PBMC"
  PARAMETER MEASURED: "Activity"
  DISPLAY UNIT: "%"
  TEST RESULT: 0.3
- MOLECULE: "CC(=O)NCCCCN1c2ccccc2Sc2cc3ccccc3nc21"
  SYSTEM NAME: "PBMC"
  PARAMETER MEASURED: "Activity"
  DISPLAY UNIT: "%"
  TEST RESULT: 94.3
- MOLECULE: "CCOC(=O)NCCCCN1c2ccc(SC)cc2Sc2cc3ccccc3nc21"
  SYSTEM NAME: "PBMC"
  PARAMETER MEASURED: "Activity"
  DISPLAY UNIT: "%"
  TEST RESULT: 27.8
- MOLECULE: "O=C(NCCCl)NCCCN1c2ccccc2Sc2cc3ccccc3nc21"
  SYSTEM NAME: "PBMC"
  PARAMETER MEASURED: "Activity"
  DISPLAY UNIT: "%"
  TEST RESULT: 77.9
- MOLECULE: "CSc1ccc2c(c1)Sc1cc3ccccc3nc1N2CCCCNS(C)(=O)=O"
  SYSTEM NAME: "PBMC"
  PARAMETER MEASURED: "Activity"
  DISPLAY UNIT: "%"
  TEST RESULT: 62.7

Looking for the measured Activity of `CSc1ccc2c(c1)Sc1cc3ccccc3nc1N2CCCNC(C)=O` , can you help? 68.8

Same lookup for `Clc1ccc2c(c1)Nc1nc3ccccc3cc1S2` , please. 27.1

Same lookup for `Cc1ccc(S(=O)(=O)NCCCN2c3ccccc3Sc3cc4ccccc4nc32)cc1` , please. -0.8

Same lookup for `CC(=O)NCCCN1c2ccc(Cl)cc2Sc2cc3ccccc3nc21` , please. 58.3

Same lookup for `O=C(NCCCl)NCCCN1c2ccc(Cl)cc2Sc2cc3ccccc3nc21` , please. 100

Same lookup for `Clc1ccc2c(c1)Sc1cc3ccccc3nc1N2` , please. 5.7

Same lookup for `O=C(NCCCl)NCCCCN1c2ccc(Cl)cc2Sc2cc3ccccc3nc21` , please. 94.6

Same lookup for `Cc1ccc2c(c1)Sc1cc3ccccc3nc1N2` , please. -6.2

Same lookup for `Cc1ccc(S(=O)(=O)NCCCN2c3ccc(Cl)cc3Sc3cc4ccccc4nc32)cc1` , please. 22.7

Same lookup for `CSc1ccc2c(c1)Sc1cc3ccccc3nc1N2CCCCNC(=O)NCCCl` , please. 92.7

Same lookup for `O=C(NCCCl)NCCCCN1c2ccccc2Sc2cc3ccccc3nc21` , please. 88.7

Same lookup for `CS(=O)(=O)NCCCCN1c2ccccc2Sc2cc3ccccc3nc21` , please. 94.3

Same lookup for CN1CCCCC1CCN1c2ccccc2Sc2cc3ccccc3nc21 (stereo not given) , please. 39.8

Same lookup for `Brc1ccc2c(c1)Sc1cc3ccccc3nc1N2` , please. 19

Same lookup for `CSc1ccc2c(c1)Sc1cc3ccccc3nc1N2CCCNS(=O)(=O)c1ccc(C)cc1` , please. -46.4

Same lookup for `CCOC(=O)NCCCN1c2ccc(Cl)cc2Sc2cc3ccccc3nc21` , please. 60.4
